These data points were gathered from patent US20230312550A1.

# assay.system: hFAP (M39-A757) (Homo sapiens (Human), UniProt Q12884)
# Sequence (Q12884 39-757): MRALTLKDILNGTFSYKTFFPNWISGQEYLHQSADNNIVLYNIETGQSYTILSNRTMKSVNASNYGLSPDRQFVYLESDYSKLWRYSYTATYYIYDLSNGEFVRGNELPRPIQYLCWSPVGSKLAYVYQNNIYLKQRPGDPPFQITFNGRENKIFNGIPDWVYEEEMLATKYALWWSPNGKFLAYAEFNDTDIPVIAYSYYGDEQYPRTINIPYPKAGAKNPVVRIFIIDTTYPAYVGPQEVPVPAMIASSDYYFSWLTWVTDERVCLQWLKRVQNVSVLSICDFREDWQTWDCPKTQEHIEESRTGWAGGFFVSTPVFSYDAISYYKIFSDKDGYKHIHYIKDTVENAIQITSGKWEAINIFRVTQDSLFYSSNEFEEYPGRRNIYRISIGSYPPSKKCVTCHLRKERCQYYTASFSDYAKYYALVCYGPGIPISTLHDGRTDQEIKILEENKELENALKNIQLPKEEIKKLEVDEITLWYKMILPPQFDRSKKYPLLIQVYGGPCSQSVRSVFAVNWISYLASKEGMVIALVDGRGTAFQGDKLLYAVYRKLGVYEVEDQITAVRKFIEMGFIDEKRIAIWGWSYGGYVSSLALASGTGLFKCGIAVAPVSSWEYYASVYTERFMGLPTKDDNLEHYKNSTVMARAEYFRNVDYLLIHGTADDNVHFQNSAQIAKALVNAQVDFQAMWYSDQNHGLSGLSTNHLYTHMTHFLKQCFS
# assay.protocol: hFAP binding assay (surface plasmon resonance)
# study.conditions: SPR, 20° C., single cycle kinetics

{"columns": ["molecule", "unit.symbol", "hFAP Binding assay k(off)"],
 "data": [
  ["C[C@@H]1CN(c2ccc3nccc(C(=O)NCC(=O)N4CSC[C@H]4C#N)c3c2)C[C@H](C)[C@@H]1O [Example 7]", "s⁻¹", 0.000075],
  ["CC1(F)CN(c2ccc3nccc(C(=O)NCC(=O)N4CSC[C@H]4C#N)c3c2)C1 [Example 24]", "s⁻¹", 0.00048],
  ["C[C@@H]1CCCN(c2ccc3nccc(C(=O)NCC(=O)N4CSC[C@H]4C#N)c3c2)C1=O (single isomer, unassigned) [Example 204]", "s⁻¹", 0.000058],
  ["Cc1cc(C(=O)NCC(=O)N2CSC[C@H]2C#N)c2cc(N3CCOCC3)ccc2n1 [Example 109]", "s⁻¹", 0.0099],
  ["N#C[C@@H]1CSCN1C(=O)CNC(=O)c1ccnc2cc(Cl)c(N3CCOCC3)cc12 [Example 179]", "s⁻¹", 0.00016],
  ["COC[C@H]1[C@H](C)OCCN1c1ccc2nccc(C(=O)NCC(=O)N3CSC[C@H]3C#N)c2c1 [Example 96]", "s⁻¹", 0.00022],
  ["C[C@@H]1CN(c2ccc3nccc(C(=O)NCC(=O)N4CSC[C@H]4C#N)c3c2)[C@H](C)CO1 [Example 87]", "s⁻¹", 0.00011]
]}

---

# assay.system: hFAP (M39-A757) (Homo sapiens (Human), UniProt Q12884)
# assay.protocol: hFAP binding assay (surface plasmon resonance)
# study.conditions: SPR, 20° C., single cycle kinetics

{"columns": ["molecule", "hFAP Binding assay k(off), s⁻¹"],
 "data": [
  ["Cn1nccc1-c1ccc2nccc(C(=O)NCC(=O)N3CSC[C@H]3C#N)c2c1", 0.00024],
  ["CC1(C)OCCN(c2ccc3nccc(C(=O)NCC(=O)N4CSC[C@H]4C#N)c3c2)C1=O", 0.000041],
  ["N#C[C@@H]1CSCN1C(=O)CNC(=O)c1ccnc2ccc(N3C[C@H]4C[C@@H]3CO4)cc12", 0.000052],
  ["CC1CC2(C1)CN(c1ccc3nccc(C(=O)NCC(=O)N4CSC[C@H]4C#N)c3c1)C2", 0.000039],
  ["N#C[C@@H]1CSCN1C(=O)CNC(=O)c1ccnc2c(Cl)cc(N3CCOCC3)cc12", 0.00095],
  ["CCC1(C)CN(c2ccc3nccc(C(=O)NCC(=O)N4CSC[C@H]4C#N)c3c2)C1", 0.000098],
  ["N#C[C@@H]1CSCN1C(=O)CNC(=O)c1ccnc2ccc(N3CCCC(F)(F)C3)cc12", 0.000090],
  ["Cc1ncccc1-c1ccc2nccc(C(=O)NCC(=O)N3CSC[C@H]3C#N)c2c1", 0.00066],
  ["N#C[C@@H]1CSCN1C(=O)CNC(=O)c1ccnc2ccc(N3CCOC[C@@H]3C(F)(F)F)cc12 (single isomer, unassigned) [Example 84]", 0.00011],
  ["N#C[C@@H]1CSCN1C(=O)CNC(=O)c1ccnc2ccc(-n3ccc4c3CCCC4)cc12", 0.0002],
  ["CC1(C)CN(c2ccc3nccc(C(=O)NCC(=O)N4CSC[C@H]4C#N)c3c2)CCC1(F)F", 0.000078],
  ["C[C@@H]1CN(c2ccc3nccc(C(=O)NCC(=O)N4CSC[C@H]4C#N)c3c2)C[C@H](C)[C@]1(C)O", 0.00012],
  ["C[C@H]1CCN(c2ccc3nccc(C(=O)NCC(=O)N4CSC[C@H]4C#N)c3c2)C1=O (single isomer, unassigned)", 0.00010],
  ["N#C[C@@H]1CSCN1C(=O)CNC(=O)c1ccnc2ccc(-c3ccnn3[C@H]3CCCCO3)cc12 (mixture of isomers)", 0.00022],
  ["N#C[C@@H]1CSCN1C(=O)CNC(=O)c1ccnc2ccc(N3CCC(C(F)(F)F)CC3)cc12", 0.00016],
  ["N#C[C@@H]1CSCN1C(=O)CNC(=O)c1ccnc2ccc(-n3ccc(-c4ccccc4)c3)cc12", 0.00032],
  ["C[C@H]1CC(F)(F)CCN1c1ccc2nccc(C(=O)NCC(=O)N3CSC[C@H]3C#N)c2c1 (mixture of isomers)", 0.000072],
  ["CC1(C)CCCN1c1ccc2nccc(C(=O)NCC(=O)N3CSC[C@H]3C#N)c2c1", 0.00018],
  ["N#C[C@@H]1CSCN1C(=O)CNC(=O)c1ccnc2ccc(N3CC4(CC4)C3)cc12", 0.000036],
  ["CC(F)(F)CC1CN(c2ccc3nccc(C(=O)NCC(=O)N4CSC[C@H]4C#N)c3c2)C1", 0.00016],
  ["COC1CN(c2ccc3nccc(C(=O)NCC(=O)N4CSC[C@H]4C#N)c3c2)C1", 0.00022],
  ["N#C[C@@H]1CSCN1C(=O)CNC(=O)c1ccnc2ccc(N3CCC4(CCOCC4)CC3)cc12", 0.000028],
  ["CCC1(O)CN(c2ccc3nccc(C(=O)NCC(=O)N4CSC[C@H]4C#N)c3c2)C1", 0.000054],
  ["CC(C)C1(O)CCN(c2ccc3nccc(C(=O)NCC(=O)N4CSC[C@H]4C#N)c3c2)CC1", 0.000014],
  ["N#C[C@@H]1CSCN1C(=O)CNC(=O)c1ccnc2ccc(N3CC(F)(c4ccccc4)C3)cc12", 0.000042],
  ["N#C[C@@H]1CSCN1C(=O)CNC(=O)c1ccnc2ccc(N3CCC(F)(F)CC3)cc12", 0.00010],
  ["CC[C@H]1COCCN1c1ccc2nccc(C(=O)NCC(=O)N3CSC[C@H]3C#N)c2c1", 0.00014],
  ["N#C[C@@H]1CSCN1C(=O)CNC(=O)c1ccnc2ccc(N3CCOCC3)c(Cl)c12", 0.000025],
  ["CC1(CF)CCN(c2ccc3nccc(C(=O)NCC(=O)N4CSC[C@H]4C#N)c3c2)CC1", 0.000030],
  ["C[C@@H]1COC[C@H](C)N1c1cc2c(C(=O)NCC(=O)N3CSC[C@H]3C#N)ccnc2cc1Br", 0.0022],
  ["N#C[C@@H]1CSCN1C(=O)CNC(=O)c1ccnc2ccc(N3CC[C@H](CO)C3)cc12", 0.000046]
]}
